Test system: MDR1-MDCK cells
testSummary: MDR1-MDCK effective efflux assay (Transwell, 10 μM, 1 hour), MDR1-MDCK cells
Format: in vitro ADME
cond: MDCK-MDR1
experimentalReadout: MDR1 EER

Worked examples follow.
[
  {
    "molecule": "COc1ccc2c(c1)CN(C)Cc1nnc(C3CC4(C3)CN(c3cnccn3)C4)n1-2",
    "assayedSystem": "MDR1-MDCK cells",
    "experimentalReadout": "MDR1 EER",
    "recordedMeasurement": "+"
  },
  {
    "molecule": "CCC(=O)N1Cc2cc(Cl)ccc2-n2c(nnc2C2CC3(C2)CN(c2cccc(F)n2)C3)C1",
    "assayedSystem": "MDR1-MDCK cells",
    "experimentalReadout": "MDR1 EER",
    "recordedMeasurement": "+"
  },
  {
    "molecule": "CC1c2nnc(C3CC4(C3)CN(c3ccc(F)cn3)C4)n2-c2ccc(Cl)cc2CN1C (centres unmarked)",
    "assayedSystem": "MDR1-MDCK cells",
    "experimentalReadout": "MDR1 EER",
    "recordedMeasurement": "++"
  },
  {
    "molecule": "CC(C)OC(=O)N1Cc2cc(Cl)ccc2-n2c(nnc2C2CC3(C2)CN(C(=O)C2CC2)C3)C1",
    "assayedSystem": "MDR1-MDCK cells",
    "experimentalReadout": "MDR1 EER",
    "recordedMeasurement": "+"
  }
]

Measured MDR1 EER for this entry CCC(=O)N1Cc2cc(Cl)ccc2-n2c(nnc2C2CC3(C2)CN(C(=O)C2CC2)C3)C1 on MDR1-MDCK cells: ++

Measured MDR1 EER for this entry O=C(C1CC1)N1Cc2cc(Cl)ccc2-n2c(nnc2C2CC3(C2)CN(c2ccccn2)C3)C1 on MDR1-MDCK cells: +

Measured MDR1 EER for this entry O=C(C1COC1)N1Cc2cc(Cl)ccc2-n2c(nnc2C2CC3(C2)CN(c2ccc(F)cn2)C3)C1 on MDR1-MDCK cells: +

Measured MDR1 EER for this entry CN1Cc2cc(Cl)ccc2-n2c(nnc2C2CC3(C2)CN(C(=O)C2(F)CC2)C3)C1 on MDR1-MDCK cells: +
